Tested on: HT29 RNF43 G659fs (RNF43 659mut, CRISPR-edited)
procedure summary: cell viability activity relative to DMSO (negative = inhibition); higher = more viable cells (less growth inhibition)
condition set: 5 µM; 96 h
Parameter cell viability activity: see the listing below.

# molecule, cell viability activity (%)
measured = [
    ("COc1cc(C(=O)N2CCC(N3CCN(C)CC3)CC2)ccc1Nc1ncc2c(n1)N(C)c1ccccc1C(=O)N2C", -56.1),
    ("Cc1cc(-c2cc(O)ccc2Cl)cc2nnc(Nc3ccc(OCCN4CCCC4)cc3)nc12", -41.1),
    ("CC(C)(N)c1cc(C(=O)N[C@@H]2CCc3ccc(Oc4ccnc5c4CCC(=O)N5)cc3C2)cc(C(F)(F)F)c1", -57.8),
    ("CCN(CC)C(=S)SSC(=S)N(CC)CC", -79.2),
    ("Cc1ccc([N+](=O)[O-])cc1S(=O)(=O)N(C)/N=C/c1cnc2ccc(Br)cn12", -88.7),
    ("O=C(O)c1ccc[n+]([O-])c1", -66),
    ("COC(=O)Nc1nc2ccc(SC(C)C)cc2[nH]1", -43.7),
    ("Cn1ccc2cc(NC(=O)Nc3cccnc3)ccc21", -29.2),
    ("CCCCNc1ncc2c(-c3ccc(CN4CCN(C)CC4)cc3)cn([C@H]3CC[C@H](O)CC3)c2n1", -89.4),
    ("COc1cc(NC(C)CCCN)c2ncccc2c1 (stereo not given)", -52.7),
]

###

Parameter cell viability activity: see the listing below.
Tested on: HT29 sg-Ctrl (RNF43 wildtype)
procedure summary: cell viability activity relative to DMSO (negative = inhibition); higher = more viable cells (less growth inhibition)
condition set: 5 µM; 96 h

# compound, cell viability activity / %
data = [
    ("COc1cc(N2CCC(N)CC2)ccc1Nc1ncc(Cl)c(-c2c[nH]c3ccccc23)n1", -95.7),
    ("C=CCn1c(=O)c2cnc(Nc3ccc(N4CCN(C)CC4)cc3)nc2n1-c1cccc(C(C)(C)O)n1", -81),
    ("Cc1ccccc1N(C)C(=O)c1ccc([S+]([O-])c2nccs2)c([N+](=O)[O-])c1 (centres undefined)", -22.7),
    ("Fc1cc(-c2cccc3ncc(-c4cnn(C5CCNCC5)c4)nc23)cc(F)c1CN1CCOCC1", -92.4),
    ("C[C@@H](NCCCc1cccc(C(F)(F)F)c1)c1cccc2ccccc12", -41.7),
    ("COc1ncc(-c2ccc3nccc(-c4ccnnc4)c3c2)cc1NS(=O)(=O)c1ccc(F)cc1F", -89.3),
    ("O=C(O)c1ccc[n+]([O-])c1", -67.1),
    ("COc1cc(OC)cc(N(CCNC(C)C)c2ccc3ncc(-c4cnn(C)c4)nc3c2)c1", -64.7),
    ("COc1ccc(NC(=O)c2ccc(-c3ccc(-c4noc(C)n4)cc3C)cc2)cc1N1CCN(C)CC1", -57.8),
]

###

Parameter cell viability activity: see the listing below.
Test system: HT29 RNF43 G659fs (RNF43 659mut, CRISPR-edited)
procedure summary: cell viability activity relative to DMSO (negative = inhibition); higher = more viable cells (less growth inhibition)
condition set: 5 µM; 96 h

# compound, unit of measure, cell viability activity
records = [
    ("CCCCCC(O)c1cccc(OCc2ccc3ccccc3n2)c1 (stereo unspecified)", "%", -71.3),
    ("CCn1c(=O)c(-c2cc[nH]n2)cc2c(C)nc(N)nc21", "%", -54.4),
    ("CC(C)(C)c1nc(-c2cccc(NS(=O)(=O)c3c(F)cccc3F)c2F)c(-c2ccnc(N)n2)s1", "%", -69.4),
    ("OCCN1CCN(CCCN2c3ccccc3Sc3ccc(Cl)cc32)CC1", "%", -53.2),
    ("C=CCCCCCCCCC(=O)O", "%", -66.5),
    ("CCCCCCCCc1ccc(CCC(N)(CO)CO)cc1", "%", -97.8),
    ("COc1cc(OCc2cccc(-c3ccccc3)c2C)cc(OC)c1CN1CCCC[C@H]1C(=O)O", "%", -24.2),
    ("Cc1nc(C#Cc2ccnc(Cl)c2)c(C)n1-c1ccc(OC(F)(F)F)cc1", "%", -25.5),
    ("COc1ccc(NC(=O)c2ccc(-c3ccc(-c4noc(C)n4)cc3C)cc2)cc1OCCN(C)C", "%", -93.7),
    ("O=C(c1ccc(F)c(F)c1Nc1ccc(I)cc1F)N1CC(O)([C@@H]2CCCCN2)C1", "%", -86.8),
    ("COc1cc(/C=C/C(=O)CC(=O)/C=C/c2ccc(O)c(OC)c2)ccc1O", "%", -87.7),
    ("CN1CCN(S(=O)(=O)c2ccc(-c3cnc(N)c(C(=O)Nc4cccnc4)n3)cc2)CC1", "%", -46.3),
    ("Cc1cc(Nc2nc(N[C@@H](C)c3ccc(F)cc3)c(C#N)cc2F)n[nH]1", "%", -66.7),
    ("COc1cccc(OCCCN)c1-c1cc(Nc2cnc(C#N)cn2)n[nH]1", "%", -78.2),
    ("CCN1CCC[C@H]1CNC(=O)c1c(OC)ccc(Br)c1OC", "%", -49.5),
    ("N#CC1(c2ccc(NC(=O)c3cccnc3NCc3ccncc3)cc2)CCCC1", "%", -45.5),
    ("CN(C)C(=O)C(CCN1CCC(O)(c2ccc(Cl)cc2)CC1)(c1ccccc1)c1ccccc1", "%", -67.6),
    ("CC[C@H](CO)Nc1nc(NCc2ccc(-c3ccccn3)cc2)c2ncn(C(C)C)c2n1", "%", -92),
    ("CC(C)CC(=O)Nc1n[nH]c2c1CN(C(=O)C1CCN(C)CC1)C2(C)C", "%", -60.4),
    ("Cc1cc(C2CCCCC2)n(O)c(=O)c1", "%", -85.1),
    ("COc1cc2c(cc1-c1c(C)noc1C)ncc1[nH]c(=O)n([C@H](C)c3ccccn3)c12", "%", -60.5),
]

###

Parameter cell viability activity: see the listing below.
Test system: HT29 RNF43 G659fs (RNF43 659mut, CRISPR-edited)
procedure summary: cell viability activity relative to DMSO (negative = inhibition); higher = more viable cells (less growth inhibition)
condition set: 5 µM; 96 h
endpoint label: cell viability activity

# compound, result
data = [
    ("C#C[C@]1(O)CC[C@H]2[C@@H]3CCC4=C(CCC(=O)C4)[C@H]3CC[C@@]21C", "-62.8%"),
    ("O=C(c1ccc(-c2ccc(Cl)cc2)o1)N(Cc1ccccn1)c1ccc(N2CCNCC2)cc1", "-45.7%"),
    ("CCNCCCNCCCCNCCCNCC", "-31%"),
    ("C/C(=C\\c1csc(C)n1)[C@@H]1C[C@@H]2O[C@]2(C)CCC[C@H](C)[C@H](O)[C@@H](C)C(=O)C(C)(C)[C@@H](O)CC(=O)N1", "-42.8%"),
    ("CN(C)c1ccc(C(=C2C=CC(=[N+](C)C)C=C2)c2ccc(N(C)C)cc2)cc1", "-96.3%"),
    ("CCOC(=O)CCNc1cc(N2CCc3ccccc3CC2)nc(-c2ccccn2)n1", "-82.7%"),
    ("CC(C)(C#N)c1ccc(N2C(=O)OCc3cnc4ccc(-c5cnc6ccccc6c5)cc4c32)cc1", "-30.7%"),
    ("CC(C)C[C@H](NC(=O)CNC(=O)c1cc(Cl)ccc1Cl)B(O)O", "-94.3%"),
    ("Nc1cc(C(F)(F)F)c(-c2cc(N3CCOCC3)nc(N3CCOCC3)n2)cn1", "-75.9%"),
    ("O=C(/C=C\\n1cnc(-c2cc(C(F)(F)F)cc(C(F)(F)F)c2)n1)N1CC(F)(F)C1", "-72.2%"),
    ("CCN(CC)CCN(Cc1ccc(-c2ccc(C(F)(F)F)cc2)cc1)C(=O)Cn1c(SCc2ccc(F)cc2)nc(=O)c2c1CCC2", "-96.2%"),
    ("CN1CC[C@@H](c2c(O)cc(O)c3c(=O)cc(-c4ccccc4Cl)oc23)[C@@H]1CO", "-90.1%"),
    ("CC[C@@H]1C(=O)N(C)c2cnc(Nc3ccc(C(=O)NC4CCN(C)CC4)cc3OC)nc2N1C1CCCC1", "-83.2%"),
    ("CCN(c1cc(C#CCN2CCOCC2)cc(C(=O)NCc2c(C)cc(C)[nH]c2=O)c1C)[C@H]1CC[C@H](N(C)CCOC)CC1", "-37.5%"),
    ("O=C(NNc1nc2cc(F)ccc2n2cccc12)c1cnccn1", "-82.8%"),
    ("COc1c(C)cnc(Cn2cc(C#CCC(C)(C)O)c3c(Cl)nc(N)nc32)c1C", "-42.7%"),
    ("Nc1nc(Nc2ccc3c(c2)CCC(N2CCCC2)CC3)nn1-c1cc2c(nn1)-c1ccccc1CCC2 (centres undefined)", "-28.9%"),
    ("Cn1cc(-c2ccc(S(=O)(=O)n3ccc(/C=C/C(=O)Nc4ccccc4N)c3)cc2)cn1", "-62.6%"),
    ("CCCCc1nc2cc(/C=C/C(=O)NO)ccc2n1CCN(CC)CC", "-99.3%"),
]
